B1: His-CAL1(1-160) [Drosophila melanogaster] / CENP-A(101-225)-H4 [Drosophila melanogaster] (parent complex)
chain 1: MANAVVDEETLEAMVYERSKAWSSKMADFASLEDGMEIDVAEFDNLFHGEDEDPDLDDVAKEAVEDNVPDEAKLEMGHINATSVTELTLILCANEDNEAKAEIEEILNQTVPVVEEHKRKWREAGLDRILDTFDEKQIEHHVGRWMRRHNSVYLEASPPK
chain 2: QQESKTRAAGPVAAQNQTRRRKAANPMSRAKRMDREIRRLQHHPGTLIPKLPFSRLVREFIVKYSDDEPLRVTEGALLAMQESCEMYLTQRLADSYMLTKHRNRVTLEVRDMALMAYICDRGRQF
chain 3: not shown

- Variants of: B1
- protocol.details: Ni-NTA pull-down, band intensity quantification; parent: 3; read off a plot
Answer each item with its documented response.

Any idea what its response is? The variant is chain 1 W22A, chain 1 F29A
~0.38 ratio CENP-A101-225/H4:CAL11-160

Any idea what its response is? The variant is chain 1 F29R
~2.6 ratio CENP-A101-225/H4:CAL11-160

Any idea what its response is? The variant is chain 1 F43R
~1.8 ratio CENP-A101-225/H4:CAL11-160

Any idea what its response is? The variant is chain 1 F29A
~3.2 ratio CENP-A101-225/H4:CAL11-160

Any idea what its response is? The variant is chain 1 W22R
~0.7 ratio CENP-A101-225/H4:CAL11-160

Any idea what its response is? The variant is chain 1 W22R, chain 1 F29R
~0.42 ratio CENP-A101-225/H4:CAL11-160
